- Tested on: Wnt5a (protein binding on small-molecule microarray)
- EXPERIMENT: Wnt5a binders on small-molecule microarray, primary screen, biophysical, 635/667 nm fluorescence (AID 1142);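 also: fluorescence read at 667 nm with signal to noise per printed feature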
- EXPERIMENTAL_CONDITIONS: 635 nm fluorescence, higher = more signal
Would you mind telling me the reported composite z-score of each entry?
Just the number, please, no unit after it.

// field: composite z-score; key: CC(C)=CCCC(C)=CCON=C1C[C@@H](O)[C@@H](O)[C@@H]2[C@@H]3C(=O)N(Cc4ccc5c(c4)OCO5)C(=O)[C@@H]3CC[C@@H]12 ; value = -0.0188

composite z-score for O=C1[C@H]2CCn3c(=O)n(Cc4cc5c(cc4Cl)OCO5)c(=O)n3[C@H]2[C@H](O)[C@@H]2O[C@H]12 is -0.509

Reported composite z-score of O=C1[C@H]2[C@H]3[C@H](O)[C@H](O)CC(=NOC[C@@H](O)COCc4ccco4)[C@@H]3CC[C@H]2C(=O)N1Cc1ccc2c(c1)OCO2 : 0.0191

composite z-score in this record for C=CC[C@@H]1C=CC(ON=C(C)C)[C@@H](CO)O1 (stereo partly drawn) : -0.174

// sample COc1ccc(OC[C@@H](CO)OC)cc1 , its composite z-score was 0.131

Lab note: measured composite z-score of COc1ccc(O[C@H]2C=C[C@@H](c3ccccc3)O[C@@H]2COC(=O)NCc2cccc3ccccc23)cc1 was -0.092

Recorded result, COc1ccc(O[C@H]2C=C[C@@H](C#Cc3ccccc3)O[C@@H]2CO)cc1 , composite z-score: -0.0391

Kindly note the recorded composite z-score for CCOC(=O)[C@H](CC(C)C)NC(=O)CCC1CC(OC(=O)NCCc2ccc(F)cc2)CC2(CCCC(COC(=O)NCc3cccc4ccccc34)O2)O1 (stereo partly drawn) , which is -0.165
